Task for the reader: assign each of the following compounds its reported melting point.

Q: Sample Nc1ncc(Sc2nnc(COc3ccc4ccccc4c3)n2N=Cc2ccccc2)s1 [Compound 12a] — what was its melting point?
Result: 145 to 146 °C

Q: Sample Nc1ncc(Sc2nnc(COc3ccc4ccccc4c3)n2N=Cc2ccccc2)o1 [Compound 11a] — what was its melting point?
Result: 162 to 164 °C

Q: Sample Nc1ncc(Sc2nnc(COc3ccc4ccccc4c3)n2N=Cc2ccccc2O)o1 [Compound 11b] — what was its melting point?
Result: 80 to 81 °C

Q: Sample Nc1ncc(Sc2nnc(COc3ccc4ccccc4c3)n2N=Cc2cccc([N+](=O)[O-])c2)o1 [Compound 11c] — what was its melting point?
Result: 196 to 198 °C

Q: Sample COc1ccc(C=Nn2c(COc3ccc4ccccc4c3)nnc2Sc2cnc(N)s2)cc1 [Compound 12d] — what was its melting point?
Result: 69 to 70 °C

Q: Sample Oc1ccccc1C=Nn1c(S)nnc1COc1ccc2ccccc2c1 — what was its melting point?
Result: 208 to 219 °C

Q: Sample COc1ccc(C=Nn2c(S)nnc2COc2ccc3ccccc3c2)cc1 — what was its melting point?
Result: 177 to 178 °C

Q: Sample Nc1ncc(Sc2nnc(COc3ccc4ccccc4c3)n2N=Cc2cccc([N+](=O)[O-])c2)s1 [Compound 12c] — what was its melting point?
Result: 182 to 184 °C

====

Measurement target: human recombinant COX-2 (Homo sapiens, UniProt P35354)
Construct: purchased Cayman Chemical 560131
Sequence (P35354 18-604): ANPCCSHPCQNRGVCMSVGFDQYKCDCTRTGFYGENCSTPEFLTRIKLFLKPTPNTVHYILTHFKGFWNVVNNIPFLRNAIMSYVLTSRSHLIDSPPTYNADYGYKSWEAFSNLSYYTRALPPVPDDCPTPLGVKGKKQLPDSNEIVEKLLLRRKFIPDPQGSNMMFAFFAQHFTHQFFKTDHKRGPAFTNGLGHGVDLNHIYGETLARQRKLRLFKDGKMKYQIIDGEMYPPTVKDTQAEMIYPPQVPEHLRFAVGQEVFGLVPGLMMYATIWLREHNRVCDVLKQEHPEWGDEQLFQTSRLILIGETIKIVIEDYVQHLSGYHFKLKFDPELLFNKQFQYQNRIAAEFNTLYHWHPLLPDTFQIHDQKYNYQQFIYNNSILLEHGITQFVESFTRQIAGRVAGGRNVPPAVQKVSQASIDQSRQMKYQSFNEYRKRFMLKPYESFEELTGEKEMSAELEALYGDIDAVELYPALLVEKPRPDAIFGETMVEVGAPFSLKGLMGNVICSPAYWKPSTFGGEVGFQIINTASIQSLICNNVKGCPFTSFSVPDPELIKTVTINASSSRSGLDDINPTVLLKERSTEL
Test summary: In vitro COX-2 inhibition, enzyme immunoassay kit (Cayman item no. 560131)
Assay type: biochemical
Measurement label: COX-2 S.I. (selectivity index, COX-1 IC50/COX-2 IC50)
Keep it simple and answer with nothing but the number.

Q: Query the reported COX-2 S.I. (selectivity index, COX-1 IC50/COX-2 IC50) for human recombinant COX-2 (Homo sapiens, UniProt P35354); item: Oc1ccccc1C=Nn1c(S)nnc1COc1ccc2ccccc2c1 [Compound 9b]
Result: 40.4

Q: Query the reported COX-2 S.I. (selectivity index, COX-1 IC50/COX-2 IC50) for human recombinant COX-2 (Homo sapiens, UniProt P35354); item: O=C(CCl)Sc1nnc(COc2ccc3ccccc3c2)n1N=Cc1cccc([N+](=O)[O-])c1 [Compound 10c]
Result: 84.3

Q: Query the reported COX-2 S.I. (selectivity index, COX-1 IC50/COX-2 IC50) for human recombinant COX-2 (Homo sapiens, UniProt P35354); item: O=C(CCl)Sc1nnc(COc2ccc3ccccc3c2)n1N=Cc1ccccc1 [Compound 10a]
Result: 74.8

Q: Query the reported COX-2 S.I. (selectivity index, COX-1 IC50/COX-2 IC50) for human recombinant COX-2 (Homo sapiens, UniProt P35354); item: O=C(CCl)Sc1nnc(COc2ccc3ccccc3c2)n1N=Cc1ccccc1O [Compound 10b]
Result: 70.6

Q: Query the reported COX-2 S.I. (selectivity index, COX-1 IC50/COX-2 IC50) for human recombinant COX-2 (Homo sapiens, UniProt P35354); item: Sc1nnc(COc2ccc3ccccc3c2)n1N=Cc1ccccc1 [Compound 9a]
Result: 31.5

Q: Query the reported COX-2 S.I. (selectivity index, COX-1 IC50/COX-2 IC50) for human recombinant COX-2 (Homo sapiens, UniProt P35354); item: Nc1ncc(Sc2nnc(COc3ccc4ccccc4c3)n2N=Cc2cccc([N+](=O)[O-])c2)o1 [Compound 11c]
Result: 252.6

Q: Query the reported COX-2 S.I. (selectivity index, COX-1 IC50/COX-2 IC50) for human recombinant COX-2 (Homo sapiens, UniProt P35354); item: COc1ccc(C=Nn2c(S)nnc2COc2ccc3ccccc3c2)cc1 [Compound 9d]
Result: 53.1

Q: Query the reported COX-2 S.I. (selectivity index, COX-1 IC50/COX-2 IC50) for human recombinant COX-2 (Homo sapiens, UniProt P35354); item: Nc1ncc(Sc2nnc(COc3ccc4ccccc4c3)n2N=Cc2ccccc2)s1 [Compound 12a]
Result: 98.3

Q: Query the reported COX-2 S.I. (selectivity index, COX-1 IC50/COX-2 IC50) for human recombinant COX-2 (Homo sapiens, UniProt P35354); item: COc1ccc(C=Nn2c(COc3ccc4ccccc4c3)nnc2SC(=O)CCl)cc1 [Compound 10d]
Result: 94.1
